assay: ACEA_ER_AUC_viability: ACEA Biosciences xCELLigence Real-Time Cell Analysis on Estrogen Receptor Agonism for Viability (AID 2283782);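 further: continuous compound exposure with impedance area under curve over 80 h; hit means loss of impedance signal meaning reduced cell growth or viability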
Results filed as inconclusive are left out. Active and inactive are the calls of the source. How the source made its calls: active means hit-call score of the fitted dose curve at least 0.9, where 1 is the maximum; inconclusive means response in the unintended direction; inactive means score below 0.9.

| MOLECULE | AC50 |
| --- | --- |
| O=NN1CCCCCCC1 | inactive |
| CCOP(=S)(OCC)SCS(=O)(=O)C(C)(C)C | inactive |
| CC[N+](CC)(CC)CC | inactive |
| Cc1ccc(CCl)cc1 | 40.7 µM (active) |
| O=[N+]([O-])c1cc([As](=O)(O)O)ccc1O | inactive |
| CCC[CH2][Sn]([Cl])([Cl])[CH2]CCC | 1.09 µM (active) |
| CC(C)(C)c1cc([N+](=O)[O-])cc(C(C)(C)C)c1O | 24.3 µM (active) |
| O=c1oc2ccccc2c(O)c1C(CC(O)c1ccc(-c2ccc(Br)cc2)cc1)c1ccccc1 (configuration not stated) | 22.7 µM (active) |
| O=C(NC(=O)c1c(F)cccc1F)Nc1cc(Cl)c(OC(F)(F)C(F)C(F)(F)F)cc1Cl (configuration not stated) | 50 µM (active) |
| CC(O)(CS(=O)(=O)c1ccc(F)cc1)C(=O)Nc1ccc(C#N)c(C(F)(F)F)c1 (configuration not stated) | inactive |
| COCC(=O)N(c1c(C)cccc1C)[C@H](C)C(=O)OC | 50 µM (active) |
| C1CN2CCN1CC2 | inactive |

====

assay: ATG_AP_2_CIS: Attagene CIS-FACTORIAL HepG2 Assay for human Activator Protein 2 (AP-2) (AID 2282932); details: HepG2 AP-2 cis-reporter, Attagene transcription factor profiling; actives raise or lower the signal
Activity calls are given as the source filed them. How the source made its calls: active means hit-call score of the fitted dose curve at least 0.9, where 1 is the maximum; inactive means score below 0.9.
Outcome codes: 1.0 = active, 0.0 = inactive

| COMPOUND | LABEL_VALUE |
| --- | --- |
| Brc1c(Br)c(Br)c(Oc2c(Br)c(Br)c(Br)c(Br)c2Br)c(Br)c1Br | 0.0 |
| O=C(NC(=O)c1c(F)cccc1F)Nc1cc(Cl)c(OC(F)(F)C(F)C(F)(F)F)cc1Cl (stereo not drawn) | 0.0 |
| CCC[CH2][Sn]([CH2]CCC)([CH2]CCC)[CH2]CCC | 1.0 |
| COc1ccc(N)cc1 | 0.0 |
| Nc1ccc(N)cc1 | 0.0 |
| Nc1ccc(-c2ccccc2)cc1 | 0.0 |
| Nc1nc(N)nc(Cl)n1 | 0.0 |
| O=C(CBr)c1ccc(O)cc1 | 0.0 |
| O=C(NC(=O)c1c(F)cccc1F)Nc1cc(Cl)c(Oc2ncc(C(F)(F)F)cc2Cl)c(Cl)c1 | 0.0 |
| O=C(O)C1(c2ccc3c(c2)OC[C@H](Cc2ccc(-c4ccccc4)cc2)[C@H]3O)CCCC1 | 0.0 |
| CC(C)[C@@H](Nc1ccc(C(F)(F)F)cc1Cl)C(=O)OC(C#N)c1cccc(Oc2ccccc2)c1 (stereo partly drawn) | 0.0 |
| O=[N+]([O-])c1cc([As](=O)(O)O)ccc1O | 0.0 |
| C[C@@H]1O[C@@H](O[C@H]2C[C@@H](O)[C@]3(CO)[C@H]4[C@H](O)C[C@]5(C)[C@@H](C6=CC(=O)OC6)CC[C@]5(O)[C@@H]4CC[C@]3(O)C2)[C@H](O)[C@H](O)[C@H]1O | 1.0 |
| O=[N+]([O-])c1ccc(Nc2ccccc2)cc1 | 0.0 |
| CC(C)CC(C)(c1ccc(O)cc1)c1ccc(O)cc1 | 0.0 |
| O=S1OC[C@@H]2[C@H](CO1)[C@]1(Cl)C(Cl)=C(Cl)[C@@]2(Cl)C1(Cl)Cl (stereo partly drawn) | 0.0 |
| O=[N+]([O-])c1ccc(Cl)c([N+](=O)[O-])c1 | 1.0 |
| O=C(Cl)OCCOCCOC(=O)Cl | 0.0 |
| Cc1cc(C(F)(C(F)(F)F)C(F)(F)F)ccc1NC(=O)c1cccc(I)c1C(=O)NC(C)(C)CS(C)(=O)=O | 0.0 |
| CN(C)C(=S)S | 0.0 |
| CCOc1ccc(N)cc1 | 0.0 |
| OC[C@@H](O)[C@H]1O[C@@H]2O[C@H](C(Cl)(Cl)Cl)O[C@@H]2[C@H]1O | 0.0 |
| O=S(=O)(C(Cl)(Cl)Cl)C(Cl)(Cl)Cl | 0.0 |

====

biological target: Retinoic acid receptor alpha (Homo sapiens) (UniProt P10276); experiment: ATG_DR5_RAR_CIS: Attagene CIS-FACTORIAL HepG2 Assay for human Retinoic Acid Receptor Alpha (RARE), DR5 submotif (AID 2282934); conditions: HepG2 Attagene cis-factorial RARE DR5 reporter, mRNA; actives raise or lower the signal
Sequence (P10276 whole entry, looked up): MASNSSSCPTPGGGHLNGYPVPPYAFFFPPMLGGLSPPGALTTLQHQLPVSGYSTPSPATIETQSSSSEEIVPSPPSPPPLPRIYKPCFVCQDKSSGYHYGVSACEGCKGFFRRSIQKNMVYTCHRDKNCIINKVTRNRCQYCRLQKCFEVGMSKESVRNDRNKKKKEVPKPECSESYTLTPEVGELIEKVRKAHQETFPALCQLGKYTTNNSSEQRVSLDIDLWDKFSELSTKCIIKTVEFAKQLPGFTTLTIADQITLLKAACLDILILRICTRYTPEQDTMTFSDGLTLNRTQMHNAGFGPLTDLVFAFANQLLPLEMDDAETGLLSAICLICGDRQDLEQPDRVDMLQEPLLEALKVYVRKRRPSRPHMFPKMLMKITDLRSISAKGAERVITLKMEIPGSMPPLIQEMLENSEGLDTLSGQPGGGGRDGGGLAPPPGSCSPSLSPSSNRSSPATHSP
Active and inactive are the calls of the source. Rule for the calls: active = hit-call score of the fitted dose curve at least 0.9, where 1 is the maximum; inactive = score below 0.9.
Outcome codes: active, inactive

| COMPOUND | LABEL_VALUE |
| --- | --- |
| N#CCCC(Br)(C#N)CBr (stereo not drawn) | active |
| O=C(O)COc1cc(Cl)c(Cl)cc1Cl | inactive |
| Clc1cnc(Oc2ccc(Oc3ncc(Cl)cc3Cl)cc2)c(Cl)c1 | inactive |
| O=S(=O)(C(Cl)(Cl)Cl)C(Cl)(Cl)Cl | inactive |
| C=C(C)C(=O)OCCCCOC(=O)C(=C)C | inactive |
| CC(C=O)Cc1ccc2c(c1)OCO2 (stereo not drawn) | inactive |
| CCC[CH2][Sn]([CH2]CCC)([CH2]CCC)[CH2]CCC | active |
| CC(C)CC(C)(c1ccc(O)cc1)c1ccc(O)cc1 | inactive |
| Clc1cccc(Cl)c1 | inactive |
| CCCCCCCCCCCCBr | inactive |
| Brc1c(Br)c(Br)c(Oc2c(Br)c(Br)c(Br)c(Br)c2Br)c(Br)c1Br | inactive |
| CCOCn1c(-c2ccc(Cl)cc2)c(C#N)c(Br)c1C(F)(F)F | active |
| CC(C)N(C(=O)CCl)c1ccccc1 | active |

====

assay: ATG_RORE_CIS: Attagene CIS-FACTORIAL HepG2 Assay for human RAR-related Orphan Receptor Element (RORE) (AID 2282959); details: HepG2 Attagene cis-factorial RORE reporter, mRNA; actives raise or lower the signal
The source made the active and inactive calls. How the source made its calls: active means hit-call score of the fitted dose curve at least 0.9, where 1 is the maximum; inactive means score below 0.9.
Outcome codes: active, inactive

| COMPOUND | LABEL_VALUE |
| --- | --- |
| O=c1oc2ccccc2c(O)c1C(CC(O)c1ccc(-c2ccc(Br)cc2)cc1)c1ccccc1 (stereo unspecified) | inactive |
| CC1(C)[C@H](C(=O)O[C@H](C#N)c2cccc(Oc3ccccc3)c2)[C@@H]1/C=C(\Cl)C(F)(F)F | inactive |
| C[CH2][Hg][S]c1ccccc1C(=O)O | active |
| Nc1ncn[nH]1 | inactive |
| COCC(=O)N(c1c(C)cccc1C)[C@H](C)C(=O)OC | inactive |
| CS(=O)(=O)c1ccc(C(=O)C2C(=O)CCCC2=O)c(Cl)c1COCC(F)(F)F | inactive |

====

assay: BSK_3C_Proliferation: Cell Proliferation Assessment in the BioMAP Diversity Plus: 3C Assay (AID 2283006); conditions: primary human endothelial cells (HUVEC)
Calls of active or inactive are those of the source. How the source made its calls: active means hit-call score of the fitted dose curve at least 0.9, where 1 is the maximum; inactive means score below 0.9.
Outcome codes: TRUE (active), FALSE (inactive)

| COMPOUND | LABEL_VALUE |
| --- | --- |
| CC(C)(COCC1CO1)COCC1CO1 (stereo unspecified) | TRUE |
| c1ccc2sc(SNC3CCCCC3)nc2c1 | FALSE |
| CCCCCCCCCCCCN(C)C | FALSE |
| Cc1c([N+](=O)[O-])c(C)c([N+](=O)[O-])c(C(C)(C)C)c1[N+](=O)[O-] | TRUE |
| CN(C)C(=S)S | FALSE |
| C[C@]12CC[C@@H](O)C[C@@H]1CC[C@@H]1[C@@H]2CC[C@]2(C)C(=O)CC[C@@H]12 | FALSE |

====

test: CCTE_Shafer_MEA_dev_interburst_interval_mean: CCTE's Neural Network Formation Assay for Mean Interburst Interval, Shafer Lab (AID 2284046);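 further: well-mean interburst interval of bursting electrodes as AUC over four recording days; curve fitted for decrease in interburst interval relative to DMSO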
Calls of active or inactive are those of the source. How the source made its calls: active means hit-call score of the fitted dose curve at least 0.9, where 1 is the maximum; inactive means score below 0.9.

| CHEMICAL_STRUCTURE | AC50 |
| --- | --- |
| Cc1cc(C(F)(C(F)(F)F)C(F)(F)F)ccc1NC(=O)c1cccc(I)c1C(=O)NC(C)(C)CS(C)(=O)=O | 6.7 µM (active) |
| CC(=O)C(F)(F)C(F)(F)F | inactive |
| Cc1ccccc1OP(=O)(Oc1ccccc1C)Oc1ccccc1C | 15 µM (active) |
| NC(=O)c1ccc(N)nc1 | 3.16 µM (active) |
| C=CCOC(F)(C(F)(F)F)C(F)(F)F | inactive |
| CC1(C)[C@H](C(=O)O[C@H](C#N)c2cccc(Oc3ccccc3)c2)[C@@H]1/C=C(\Cl)C(F)(F)F | inactive |

====

read-out: Pselectin, SELP (gene 6403); test: BSK_4H_Pselectin: BioMAP Diversity Plus: 4H Assay for Pselectin Biomarker Activity (AID 2283026); conditions: primary human endothelial cells (HUVEC); actives raise or lower the signal
The source made the active and inactive calls. How the source made its calls: active means hit-call score of the fitted dose curve at least 0.9, where 1 is the maximum; inactive means score below 0.9.

| COMPOUND | AC50 |
| --- | --- |
| CC(C)N(C(=O)CCl)c1ccccc1 | 16.8 µM (active) |
| COCC(=O)N(c1c(C)cccc1C)[C@H](C)C(=O)OC | inactive |
| Nc1ccc(N)cc1 | inactive |
| O=c1oc2ccccc2c(O)c1C(CC(O)c1ccc(-c2ccc(Br)cc2)cc1)c1ccccc1 (stereo not drawn) | 6.34 µM (active) |
| Cc1cc(Cl)ccc1OC(C)C(=O)O (stereo not drawn) | inactive |
| OCCN(CCO)CCO | inactive |
| O=C(N[C@H]1CN2CCC1CC2)c1ccc2c(c1)OCCO2 | inactive |
| CC(C)(C)c1ccccc1O | inactive |
| Clc1cccc(Cl)c1Cl | inactive |
| c1ccc2sc(SNC3CCCCC3)nc2c1 | inactive |
| CC(C)O.CC(C)O.OCCN(CCO)CCO.OCCN(CCO)CCO.[Ti] | inactive |
| CCOP(=S)(OCC)SCS(=O)(=O)C(C)(C)C | inactive |
| Cc1ccccc1OP(=O)(Oc1ccccc1)Oc1ccccc1 | 20 µM (active) |
